Lab note: log10 IC50 readings collected with UniProt:P63085 for the following molecules.
Sequence (P63085 whole entry): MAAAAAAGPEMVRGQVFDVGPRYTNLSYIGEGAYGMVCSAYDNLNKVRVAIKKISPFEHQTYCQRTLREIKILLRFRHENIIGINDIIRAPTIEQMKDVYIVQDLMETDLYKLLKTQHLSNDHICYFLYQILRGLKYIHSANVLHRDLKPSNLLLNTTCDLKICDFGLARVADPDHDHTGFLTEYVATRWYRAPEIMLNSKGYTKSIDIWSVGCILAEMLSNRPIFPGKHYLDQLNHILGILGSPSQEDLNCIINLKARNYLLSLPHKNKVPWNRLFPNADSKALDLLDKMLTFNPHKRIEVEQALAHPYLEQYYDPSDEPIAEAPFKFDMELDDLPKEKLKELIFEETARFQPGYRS
Value type: log10 IC50 (log10 of the value in µM)

# Molecule, log10 IC50
measured = [
    ("CC(C)Oc1cc(-c2n[nH]c3ccc(C(=O)NN4CCCC4CCc4ccccc4)cc23)ccn1 (stereo not shown)", 0.00),
    ("Cc1cc(-c2n[nH]c3ccc(C(=O)N[C@H]4CCC[C@@](O)(Cn5ncc6ccc(F)cc65)C4)cc23)ccn1 (relative stereo)", 0.00),
    ("Cc1cc(-c2n[nH]c3ccc(C(=O)N[C@H]4CCC[C@](O)(Cn5c(C)nc6ccccc65)C4)cc23)ccn1", -0.48),
    ("Cn1cc2cc(-c3n[nH]c4ccc(C(=O)N[C@@H]5CCC[C@](O)(Cn6ccnc6)C5)cc34)ccc2n1 (relative stereo)", -1.21),
    ("Cc1cc(-c2n[nH]c3ccc(C(=O)N[C@H]4CCC[C@](O)(Cn5ncc6ccc(F)cc65)C4)cc23)ccn1 (relative stereo)", -0.44),
    ("Cc1cc(-c2n[nH]c3ccc(C(=O)NC4CCCC(O)(C(F)(F)c5ccccc5)C4)cc23)ccn1 (stereo not shown) [compound 48]", -0.97),
    ("Cc1cc(-c2n[nH]c3ccc(C(=O)N[C@H]4CCC[C@](O)(Cn5ncc6ccc(C(F)(F)F)cc65)C4)cc23)ccn1 (relative stereo)", -0.97),
    ("Cc1cc(-c2n[nH]c3ccc(C(=O)NN4CCCC(Oc5ccccc5Cl)C4)cc23)ccn1 (stereo not shown)", -1.07),
    ("Cc1cc(-c2n[nH]c3ccc(C(=O)NC4CCCC(Cc5ccccc5F)(NC=O)C4)cc23)ccn1 (stereo not shown)", -0.79),
    ("Cc1cc(-c2n[nH]c3ccc(C(=O)NC4CCCC(Oc5ccccc5Cl)C4)cc23)ccn1 (single isomer, unassigned) [compound 30]", -1.41),
    ("Cc1cc(-c2n[nH]c3ccc(C(=O)NC4CCCC(O)(C(O)c5ccccc5)C4)cc23)ccn1 (stereo not shown) [compound 52]", -0.53),
    ("Cc1cc(-c2n[nH]c3ccc(C(=O)N[C@@H]4CCC[C@](O)(Cn5cc6ccccc6n5)C4)cc23)ccn1 (relative stereo)", -1.56),
    ("Cc1cc(-c2n[nH]c3ccc(C(=O)N[C@@H]4CCCC(F)(Cc5ccccc5F)C4)cc23)ccn1 (single isomer, unassigned; isomer 1)", 0.00),
]
